Each recorded value in this set is attributed to paper PMC10669220.

- Test system: breast cancer (MCF-7) cell line
- assay_remarks: MTT cytotoxicity assay, MCF-7
- experimental_setup: Conc. 50 (µM per method); Table S2
measured_quantity: Cell viability percentage, MCF-7

| molecule | test_target | Cell viability percentage, MCF-7 |
| --- | --- | --- |
| CC1=[N+]([O-])C(c2ccc(F)cc2)Nc2ccc(I)cc21 (stereo not shown) | breast cancer (MCF-7) cell line | 23,6814% |
| CC1=[N+]([O-])C(c2ccccc2)Nc2c(Br)cc(I)cc21 (stereo not shown) | breast cancer (MCF-7) cell line | 17,6314% |
| CC1=[N+]([O-])C(c2ccc(F)cc2)Nc2c(I)cc(Br)cc21 (stereo not shown) | breast cancer (MCF-7) cell line | 22,7375% |

Can you look up the measured Cell viability percentage, MCF-7 of CC1=[N+]([O-])C(c2ccccc2)Nc2c(I)cc(Br)cc21 (stereo not shown) for me?
18,1803%

Can you look up the measured Cell viability percentage, MCF-7 of COc1ccc(C2Nc3c(I)cc(Br)cc3C(C)=[N+]2[O-])cc1 (stereo not shown) for me?
17,5102%

====

- test_target: α-Glucosidase type 1 from baker's yeast (Saccharomyces cerevisiae, UniProt P53341)
- Construct: purchased Sigma Aldrich (Pty) Ltd. G5003
- Sequence (P53341 whole entry): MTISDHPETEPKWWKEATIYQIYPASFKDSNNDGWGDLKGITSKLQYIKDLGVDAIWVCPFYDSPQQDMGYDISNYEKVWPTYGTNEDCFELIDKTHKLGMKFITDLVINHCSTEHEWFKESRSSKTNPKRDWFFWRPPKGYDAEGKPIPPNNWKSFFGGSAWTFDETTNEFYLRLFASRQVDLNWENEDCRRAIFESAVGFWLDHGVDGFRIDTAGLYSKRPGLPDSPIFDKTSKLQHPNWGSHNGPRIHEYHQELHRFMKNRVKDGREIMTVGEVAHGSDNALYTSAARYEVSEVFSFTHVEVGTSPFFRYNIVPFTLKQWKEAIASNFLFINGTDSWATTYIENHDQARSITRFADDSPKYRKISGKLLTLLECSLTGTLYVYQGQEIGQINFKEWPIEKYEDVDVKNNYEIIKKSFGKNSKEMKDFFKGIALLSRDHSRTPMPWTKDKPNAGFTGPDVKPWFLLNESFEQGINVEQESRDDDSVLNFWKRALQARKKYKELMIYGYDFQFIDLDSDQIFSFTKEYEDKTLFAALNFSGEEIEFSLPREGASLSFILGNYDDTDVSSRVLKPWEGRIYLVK
- assay_remarks: biochemical
- experimental_setup: mean ± SD, triplicate; tested at 1, 5, 10, 25, 50 µM; read-out: IC50 α-Glucosidase
measured_quantity: IC50 (µM)
Write the number in µM without appending the unit.

| molecule | measured_quantity | assay_result |
| --- | --- | --- |
| CC1=[N+]([O-])C(c2ccc(Cl)cc2)Nc2c(I)cc(Br)cc21 (centres unmarked) [Compound 3k] | IC50 | 13.5 |

Then this molecule:
Can you look up the measured IC50 of CC1=[N+]([O-])C(c2ccc(Cl)cc2)Nc2ccc(I)cc21 (racemic) [Compound 3g] for me?
15.1

====

- assay_remarks: DPPH radical scavenging assay
- experimental_setup: mean ± SD; 45 min in the dark; 512 nm
pIC50: −log10 of the molar value.
Rule: TRUE for pIC50 not less than 5, FALSE for anything less.

| molecule | group |
| --- | --- |
| COc1ccc(C2Nc3ccc(I)cc3C(C)=[N+]2[O-])cc1 (centres unmarked) [Compound 3h] | TRUE |
| CC1=[N+]([O-])C(c2ccc(F)cc2)Nc2c(Br)cc(I)cc21 (centres unmarked) [Compound 3n] | TRUE |
| CC1=[N+]([O-])C(c2ccc(F)cc2)Nc2c(I)cc(Br)cc21 (centres unmarked) [Compound 3j] | FALSE |
| COc1ccc(C2Nc3c(I)cc(Br)cc3C(C)=[N+]2[O-])cc1 (centres unmarked) [Compound 3l] | FALSE |
| CC1=[N+]([O-])C(c2ccccc2)Nc2ccc(I)cc21 (centres unmarked) [Compound 3e] | TRUE |

// inclusive: pIC50 at least 5? input: CC1=[N+]([O-])C(c2ccc(F)cc2)Nc2ccc(I)cc21 (centres unmarked) [Compound 3f]
FALSE

// inclusive: pIC50 at least 5? input: CC1=[N+]([O-])C(c2ccc(Cl)cc2)Nc2c(Br)cc(I)cc21 (centres unmarked) [Compound 3o]
FALSE

// inclusive: pIC50 at least 5? input: CC1=[N+]([O-])C(c2ccc(Cl)cc2)Nc2ccc(Br)cc21 (centres unmarked) [Compound 3c]
FALSE
